System: PP2A
PROTOCOL NOTES: PP2A phosphatase activity (malachite green-phosphate assay in cell lysate)
Assay type: cell-based
REPORTED ENDPOINT: minimal concentration for PP2A activation

1. C#Cc1cccc(Nc2nc3ccccc3nc2Nc2cccc(C#C)c2)c1 = 100 to 200 nM
2. COc1ccc(Nc2nc3ccc([N+](=O)[O-])cc3nc2Nc2cccc(O)c2)cc1 = <100 nM
3. C#Cc1cccc(Nc2nc3ccc([N+](=O)[O-])cc3nc2Nc2cccc(C#C)c2)c1 = <50 nM
4. O=[N+]([O-])c1ccc2nc(Nc3cccc(Br)c3)c(Nc3cccc(Br)c3)nc2c1 = >200 nM
5. C#Cc1cccc(Nc2nc3cc([N+](=O)[O-])ccc3nc2Nc2ccc(OC)cc2)c1 = 100 to 200 nM

The measured values listed here are drawn from patent US10189795B2.
